- measuredOn: T1, monkey CDH6 protein (cynoCDH6 ECD-his) (monkey (cyno), UniProt A0A2K5TW62 19-615)
- T1 construct: range 19-615; also called Cyno CDH6-his; not shown: his tag
- T1 sequence: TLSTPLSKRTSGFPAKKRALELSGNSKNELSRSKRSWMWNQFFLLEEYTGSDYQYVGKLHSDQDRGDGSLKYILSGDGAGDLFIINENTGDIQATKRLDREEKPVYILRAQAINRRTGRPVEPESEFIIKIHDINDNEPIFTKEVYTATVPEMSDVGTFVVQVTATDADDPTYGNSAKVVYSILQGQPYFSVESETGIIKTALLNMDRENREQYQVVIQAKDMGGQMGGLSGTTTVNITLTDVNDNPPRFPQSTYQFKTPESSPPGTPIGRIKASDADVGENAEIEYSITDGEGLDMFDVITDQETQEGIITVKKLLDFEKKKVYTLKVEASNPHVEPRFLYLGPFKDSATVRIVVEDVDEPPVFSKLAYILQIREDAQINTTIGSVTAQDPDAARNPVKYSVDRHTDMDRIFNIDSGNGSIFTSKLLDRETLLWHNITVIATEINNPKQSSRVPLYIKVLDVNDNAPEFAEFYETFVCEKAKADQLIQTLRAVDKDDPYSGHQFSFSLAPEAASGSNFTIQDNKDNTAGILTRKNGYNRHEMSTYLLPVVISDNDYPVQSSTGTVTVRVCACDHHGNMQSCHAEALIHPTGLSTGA
- methodNotes: ELISA, coated antigen

{"binder": "CHI-CDH6-14 (antibody, human IgG1, kappa, V domains shown, also called CHI-hCDH6-14; CH1-CDH6-14) VH: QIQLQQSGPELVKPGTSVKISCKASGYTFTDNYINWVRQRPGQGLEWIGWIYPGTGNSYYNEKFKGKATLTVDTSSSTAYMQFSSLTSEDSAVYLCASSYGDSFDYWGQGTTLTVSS VL: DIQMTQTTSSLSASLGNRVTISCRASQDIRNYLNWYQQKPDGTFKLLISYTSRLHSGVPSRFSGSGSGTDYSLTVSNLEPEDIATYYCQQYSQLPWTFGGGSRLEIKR", "Max OD450 (OD450)": 2.55}
{"binder": "CHI-CDH6-7 (antibody, human IgG1, kappa, V domains shown, also called CH1-CDH6-7; chimeric antibody of murine CDH6-7) VH: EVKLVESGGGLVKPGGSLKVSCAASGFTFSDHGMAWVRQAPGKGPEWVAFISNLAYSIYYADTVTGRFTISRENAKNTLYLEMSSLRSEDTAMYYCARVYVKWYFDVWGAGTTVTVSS VL: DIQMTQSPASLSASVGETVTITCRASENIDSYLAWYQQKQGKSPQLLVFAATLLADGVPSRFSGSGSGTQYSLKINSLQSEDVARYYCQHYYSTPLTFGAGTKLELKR", "Max OD450 (OD450)": 2.05}
{"binder": "DS-H01L02 (antibody, human IgG1, kappa, V domains shown, Positive control, variable regions from WO2018212136A1; also called positive control anti-human CDH6 antibody) VH: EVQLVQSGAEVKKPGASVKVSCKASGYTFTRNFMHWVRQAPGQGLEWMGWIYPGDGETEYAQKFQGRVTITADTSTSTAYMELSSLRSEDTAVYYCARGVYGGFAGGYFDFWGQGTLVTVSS VL: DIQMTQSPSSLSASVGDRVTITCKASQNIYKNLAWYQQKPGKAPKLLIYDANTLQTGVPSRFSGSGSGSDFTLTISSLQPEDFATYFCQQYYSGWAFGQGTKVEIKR", "Max OD450 (OD450)": 2.18}
{"binder": "CHI-CDH6-5 (antibody, human IgG1, kappa, V domains shown, also called CH1-CDH6-5; chimeric antibody of murine CDH6-5) VH: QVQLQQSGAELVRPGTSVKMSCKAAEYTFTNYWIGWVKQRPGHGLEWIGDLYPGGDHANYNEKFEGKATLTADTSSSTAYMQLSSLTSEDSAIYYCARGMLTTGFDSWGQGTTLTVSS VL: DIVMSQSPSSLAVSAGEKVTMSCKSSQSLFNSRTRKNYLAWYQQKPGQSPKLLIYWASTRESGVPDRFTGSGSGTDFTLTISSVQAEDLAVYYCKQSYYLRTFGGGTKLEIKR", "Max OD450 (OD450)": 1.96}
{"binder": "CHI-CDH6-2 (antibody, human IgG1, kappa, V domains shown, also called chimeric antibody of murine CDH6-2) VH: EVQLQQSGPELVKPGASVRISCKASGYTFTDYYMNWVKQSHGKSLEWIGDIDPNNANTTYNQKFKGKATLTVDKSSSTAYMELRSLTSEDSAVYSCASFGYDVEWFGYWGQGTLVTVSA VL: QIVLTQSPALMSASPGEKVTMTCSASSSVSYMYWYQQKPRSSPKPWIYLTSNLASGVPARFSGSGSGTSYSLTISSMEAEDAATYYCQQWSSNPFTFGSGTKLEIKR", "Max OD450 (OD450)": 2.12}
{"binder": "CHI-CDH6-10 (antibody, human IgG1, kappa, V domains shown, also called chimeric antibody of murine CDH6-10) VH: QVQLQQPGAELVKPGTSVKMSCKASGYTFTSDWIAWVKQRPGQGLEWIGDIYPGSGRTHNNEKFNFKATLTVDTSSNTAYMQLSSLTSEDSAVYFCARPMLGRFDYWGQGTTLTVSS VL: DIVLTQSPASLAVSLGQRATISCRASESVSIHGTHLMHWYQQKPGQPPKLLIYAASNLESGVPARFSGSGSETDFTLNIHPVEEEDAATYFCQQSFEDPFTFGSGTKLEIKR", "Max OD450 (OD450)": 2.26}
